test system: human hepatocellular carcinoma (HepG2); experiment: MTT antiproliferative assay, HepG2 cells; assay type: cell-based; conditions: Homo sapiens; HepG2 cells, MTT, 48 h exposure; read-out: IC50 [µg/ml] ± SEM, HepG2
measure-name: IC50 (µg/mL)

1. CCc1c2c(nc3ccc(OC(=O)N4CCC(N5CCCCC5)CC4)cc13)-c1cc3c(c(=O)n1C2)COC(=O)[C@]3(O)CC [Irinotecan, irinotecan, reference compound]	14.8
2. O=C(C=C1SC(=O)NC1=O)Oc1ccccc1C=NNC(=O)c1cccc(Cl)c1 [Compound 18]	3.86
3. O=C(C=C1SC(=O)NC1=O)Oc1ccc(C=NNC(=O)c2cccc(Cl)c2)cc1 [Compound 20]	27
4. COc1cc(C=NNC(=O)c2cccc(Cl)c2)ccc1OC(=O)C=C1SC(=O)NC1=O [Compound 21]	48.4

(P) O=C(CC1SC(=O)NC1=O)Oc1cccc(C=NNC(=S)Nc2ccccc2)c1 (stereo not drawn) [Compound 22]
(Q) Cc1ccc(NC(=S)NN=Cc2cccc(OC(=O)CC3SC(=O)NC3=O)c2)cc1 (stereo not drawn) [Compound 23]
Given the two records P and Q , choose the one whose IC50 value is lower. Lab log: write the label of the selected item as the result.
Q
(Q: 15.2 µg/mL, P: 48.3 µg/mL)
